Test: In vitro MTT cytotoxicity assay
Assay type: cell-based, mouse
Settings: mouse, 3T3 mouse fibroblast cells, 3T3 cells, 48 hrs incubation, read-out: Cytotoxicity IC50 (μM ± SD)
readout: IC50 at 48 h (µM)
Provide only the numeric value, understood in µM.

Fill in IC50 at 48 h for record O=c1cc(-c2ccccc2)oc2ccccc12
29.1

* * *

Target: thymidine phosphorylase (TP) enzyme (Escherichia coli, UniProt P07650)
Construct: purchased Sigma Aldrich, USA
Sequence (P07650 whole entry): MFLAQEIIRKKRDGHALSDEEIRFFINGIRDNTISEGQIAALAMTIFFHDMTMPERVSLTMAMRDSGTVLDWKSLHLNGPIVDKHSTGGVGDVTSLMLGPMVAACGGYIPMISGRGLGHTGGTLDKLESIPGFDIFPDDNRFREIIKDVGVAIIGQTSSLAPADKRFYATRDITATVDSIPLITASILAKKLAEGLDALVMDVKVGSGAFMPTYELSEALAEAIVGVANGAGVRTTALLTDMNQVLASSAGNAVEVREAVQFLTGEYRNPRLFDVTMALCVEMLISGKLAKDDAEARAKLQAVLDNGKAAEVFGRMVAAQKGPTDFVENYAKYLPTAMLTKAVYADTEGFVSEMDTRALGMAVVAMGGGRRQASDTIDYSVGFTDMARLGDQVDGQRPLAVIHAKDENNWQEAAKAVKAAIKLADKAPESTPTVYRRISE
Assay: Mechanistic (kinetic) studies on TP, Lineweaver-Burk plot and secondary re-plot
Assay type: biochemical, E. coli
Conditions: Lineweaver-Burk plot, substrate thymidine
readout: Type of inhibition

Worked set:
Fill in Type of inhibition for record O=c1cc(-c2ccccc2)oc2ccccc12 [Compound 1]
Uncompetitive

Fill in Type of inhibition for record COc1cc2c(cc1OC)-c1c(OC)c(OC)cc3c1[C@H](C2)N(C)CC3 [Compound 11, Glaucine HBr]
Uncompetitive

Fill in Type of inhibition for record COc1cc2ccc(=O)oc2cc1O [Compound 9]
Non-competitive

Fill in Type of inhibition for record O=c1ccc2ccccc2o1 [Compound 6, coumarin]
Uncompetitive

As a next step, examine the compound that follows.
Fill in Type of inhibition for record O=c1[nH]c(=O)c2cc[nH]c2[nH]1 [7-Deazaxanthine, 7-deazaxanthine, reference compound]
Non-competitive

* * *

Target: thymidine phosphorylase (TP), recombinant E. coli TP enzyme (Escherichia coli, UniProt P07650)
Construct: purchased Sigma Aldrich, USA
Test: Thymidine phosphorylase inhibition assay (spectrophotometric)
Format: biochemical
Conditions: 1.5 mM thymidine, 30°C, pH 7.0, 290 nm, test compounds screened at 500 μM, read-out: TP Inhibition IC50 (μM ± SEM)
readout: log10(IC50) (log10 of the value in µM)
Kindly note that the scale is log10 and the underlying IC50 is in µM.

Fill in log10(IC50) for record O=c1cc(-c2ccccc2)oc2ccccc12
2.29

Fill in log10(IC50) for record COc1c2ccoc2cc2oc(=O)ccc12
2.54

Fill in log10(IC50) for record COc1c(O)cc2oc(-c3ccc(O)c(O)c3)c(O)c(=O)c2c1O
1.89

Fill in log10(IC50) for record COc1cc(O)c2c(=O)cc(-c3c(OC)ccc(O)c3O)oc2c1
2.05

Fill in log10(IC50) for record N=C1CCCN1Cc1[nH]c(=O)[nH]c(=O)c1Cl [Tipiracil, tipiracil, reference compound]
-1.85

Fill in log10(IC50) for record COc1cc2c(cc1OC)-c1c(OC)c(OC)cc3c1[C@H](C2)N(C)CC3
2.38

Fill in log10(IC50) for record O=c1ccc2ccccc2o1
2.62

Fill in log10(IC50) for record COc1cc2ccc(=O)oc2cc1O
2.29

Fill in log10(IC50) for record C[C@H](Cc1ccc(O)c(O)c1)[C@@H](C)Cc1ccc(O)c(O)c1
1.64

Fill in log10(IC50) for record CC1(C)C=Cc2c(ccc3ccc(=O)oc23)O1
2.26

* * *

Molecular target: thymidine phosphorylase (TP) enzyme (Escherichia coli)
Construct: purchased Sigma Aldrich, USA
Assay: Mechanistic (kinetic) studies on TP, Lineweaver-Burk plot and secondary re-plot
Type: biochemical, E. coli
Conditions: Lineweaver-Burk plot, substrate thymidine
readout: Type of inhibition

Fill in Type of inhibition for record COc1c(O)cc2oc(-c3ccc(O)c(O)c3)c(O)c(=O)c2c1O
Mixed

Fill in Type of inhibition for record CC1(C)C=Cc2c(ccc3ccc(=O)oc23)O1
Uncompetitive

Fill in Type of inhibition for record COc1cc2ccc(=O)oc2cc1O[C@@H]1O[C@H](CO[C@@H]2OC[C@](O)(CO)[C@H]2O)[C@@H](O)[C@H](O)[C@H]1O
Uncompetitive
